These entries and their values trace back to ChEMBL document CHEMBL3797104.

molecular target: Tubulin; test: Inhibition of tubulin (unknown origin) polymerization measured after 1 hr by ELISA plate reader analysis
endpoint: IC50 (nM)

[a] COc1cc(/C=C/C(=O)/C=C/c2cccc3ccccc23)ccc1OCc1cn(CCOc2cc(=O)oc3ccccc23)nn1
[b] COc1ccc(/C=C/C(=O)/C=C/c2ccc(OCc3cn(CCOc4cc(=O)oc5ccccc45)nn3)c(OC)c2)cc1OC
[c] COc1cc(/C=C/C(=O)/C=C/c2cc(OC)c(OC)c(OC)c2)ccc1OCc1cn(CCOc2cc(=O)oc3ccccc23)nn1
Lab note: arrange the 3 compounds above from lowest to highest IC50. Labels, requested order.
c, b, a
(c: 1550 nM, b: 2880 nM, a: 7650 nM)

###

assay: Cytotoxicity against human COLO205 cells assessed as growth inhibition at 50 uM after 48 hrs by SRB assay; assay type: functional; conditions: COLO 205, 48 h, read-out: GI
# maps each entry to its inhibition of growth at 50 µM
The response must be a number in % with no trailing unit.

{"structure.as.smiles": "COc1cc(/C=C/C(=O)/C=C/c2cccs2)ccc1OCc1cn(CCCCOc2cc(=O)oc3ccccc23)nn1", "inhibition of growth at 50 µM, %": 40}
{"structure.as.smiles": "COc1ccc(/C=C/C(=O)/C=C/c2ccc(OCc3cn(CCCCOc4cc(=O)oc5ccccc45)nn3)c(OC)c2)cc1OC", "inhibition of growth at 50 µM, %": 53}
{"structure.as.smiles": "COc1ccc(/C=C/C(=O)/C=C/c2ccc(OCc3cn(CCCOc4cc(=O)oc5ccccc45)nn3)c(OC)c2)cc1OC", "inhibition of growth at 50 µM, %": 65}

Now consider a different molecule.
Report inhibition of growth at 50 µM for COc1ccc(/C=C/C(=O)/C=C/c2ccc(OCc3cn(CCOc4cc(=O)oc5ccccc45)nn3)c(OC)c2)cc1 please.
68

###

assay: Cytotoxicity against human PC3 cells assessed as growth inhibition at 50 uM after 48 hrs by SRB assay; type: functional; details: PC-3, 48 h, read-out: GI
# maps each entry to its inhibition of growth at 50 µM
The response must be a number in % with no trailing unit.

Report inhibition of growth at 50 µM for COc1cc(/C=C/C(=O)/C=C/c2cccc3ccccc23)ccc1OCc1cn(CCCOc2cc(=O)oc3ccccc23)nn1 please.
8

Repeat with COc1cc(/C=C/C(=O)/C=C/c2cc(OC)c(OC)c(OC)c2)ccc1OCc1cn(CCCCOc2cc(=O)oc3ccccc23)nn1
5

###

# maps each entry to its IC50
assay: Cytotoxicity against human HCT116 cells after 48 hrs by SRB assay; type: functional, cell-based; details: HCT-116, 48 h
The response must be a number in µM with no trailing unit.

Solved cases (5 shown):
{"structure.as.smiles": "COc1ccc(/C=C/C(=O)/C=C/c2ccc(OCc3cn(CCOc4cc(=O)oc5ccccc45)nn3)c(OC)c2)cc1OC", "IC50, µM": 4.71}
{"structure.as.smiles": "COc1ccc(/C=C/C(=O)/C=C/c2ccc(OCc3cn(CCCOc4cc(=O)oc5ccccc45)nn3)c(OC)c2)cc1OC", "IC50, µM": 11}
{"structure.as.smiles": "COc1cc(/C=C/C(=O)/C=C/c2cc(OC)c(OC)c(OC)c2)ccc1OCc1cn(CCCOc2cc(=O)oc3ccccc23)nn1", "IC50, µM": 8.65}
{"structure.as.smiles": "COc1cc(/C=C/C(=O)/C=C/c2cccc3ccccc23)ccc1OCc1cn(CCCOc2cc(=O)oc3ccccc23)nn1", "IC50, µM": 10.4}
{"structure.as.smiles": "COc1cc(/C=C/C(=O)/C=C/c2cccc3ccccc23)ccc1OCc1cn(CCOc2cc(=O)oc3ccccc23)nn1", "IC50, µM": 6.54}

Report IC50 for COc1cc(/C=C/C(=O)/C=C/c2cccs2)ccc1OCc1cn(CCOc2cc(=O)oc3ccccc23)nn1 please.
9.29

Repeat with COc1cc(/C=C/C(=O)/C=C/c2cc(OC)c(OC)c(OC)c2)ccc1OCc1cn(CCOc2cc(=O)oc3ccccc23)nn1
2.21
